- TARGET OR TEST SYSTEM: T1, ZFP SBS#223 (synthetic)
- T1 chain: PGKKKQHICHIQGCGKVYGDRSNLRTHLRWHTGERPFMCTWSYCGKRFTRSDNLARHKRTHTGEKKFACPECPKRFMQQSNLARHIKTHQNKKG
- TEST NAME: EMSA
- CONDITION PARAMETERS: tags: MBP fusion
OUTCOME MEASURE: pKd
// pKd here means minus log10 of the molar concentration (mol/L)

In: Please report the recorded pKd for GATGAGTAC (dsDNA) DNA 1: GATGAGTAC DNA 2: GTACTCATC .
Out: 6.98
